# System: NCI-H226
# method-notes: NCI tumour cell line growth inhibition, 48 h
Activity calls are given as the source filed them. Cut-off read from the data, not from the text of the source: active = GI50 up to about 1.1 µM and inactive = higher.
Your answer must be one of the following: active, inactive

The following molecules have reported results that may help.
molecule: Cc1ccc(-c2cnc(NC3OC(COC(=O)c4ccccc4)C(OC(=O)c4ccccc4)C(OC(=O)c4ccccc4)C3OC(=O)c3ccccc3)s2)cc1 (centres undefined)
label-class: inactive
//
molecule: CCOC(=O)C1C(=O)CC(C)(O)C(C(=O)OCC)C1c1ccc(N(C)C)cc1 (centres undefined)
label-class: inactive
//
molecule: Cc1cc(N(CCC#N)CCC#N)ccc1/C=C(\NC(=O)/C=C/c1ccccc1)C(=O)N=[N+]=[N-]
label-class: inactive
//
molecule: COc1cc(-c2cc(=O)c3c(OC)c(OC)c(OC)c(OC)c3o2)c(OC)c(OC)c1OC
label-class: inactive
//
molecule: CC(C)CCCCCCCCCCCCC(=O)NCC(=O)NC1C(C)OC(Nc2[nH]cnc3ncnc2-3)C(O)C1O (centres undefined)
label-class: active

Recorded test outcome, item NC(CC(O)(c1ccccc1)c1ccccc1)c1ccccc1S (centres undefined)
inactive

Would you kindly repeat that for `CC(=O)Nc1ccc2c(c1)[nH]c(=O)c1cc(Cl)ccc12` ?
inactive

Would you kindly repeat that for COC(=O)[C@@H]1[C@@H](c2cccc(Cl)c2)[C@H](C(=O)OC)C2(C[C@@]1(C)O)NCCS2 (some centres undefined) ?
inactive

Would you kindly repeat that for C1CC[N+]23CCCC[N+]2(C1)CCCC3 (centres undefined) ?
inactive

Would you kindly repeat that for `COc1ccc(/C=C2\CCC/C(=C\c3ccc(O)c(CN4CCCCC4)c3)C2=O)cc1` ?
inactive

Would you kindly repeat that for `O[C@H]1[C@H]2[C@H](O)CCCN2C[C@H]1O` ?
inactive

====

# Tested on: A549
# method-notes: NCI tumour cell line growth inhibition, 48 h
Active and inactive are the calls of the source. Rule as the data show it: active = GI50 up to about 1.1 µM and inactive = higher.
readout-type: GI50

Short answer please: GI50, A549, entry `N#Cc1cccc(NC(=O)c2ccc(C(=O)O)c(C(=O)c3ccc(C(=O)O)c(C(=O)Nc4cccc(C#N)c4)c3)c2)c1`
> 100 µM (inactive)

Would you kindly repeat that for `Cc1c(C(=O)c2ccc(N)c3ccccc23)c2ccccc2n1CCN1CCOCC1` ?
13.1 µM (inactive)

Would you kindly repeat that for `O=C(Sc1n[nH]c(=O)[nH]c1=O)c1cccc2nc3ccccc3nc12` ?
4.05 µM (inactive)

Would you kindly repeat that for CCC1c2[nH]c3ccccc3c2C[C@H]2C(=O)NC(Cc3ccccc3)C(=O)N12 (stereo partly specified) ?
30.1 µM (inactive)

Would you kindly repeat that for `COc1ccc2c(c1)[n+]([O-])c(-c1ccc(OC)c(OC)c1)c(N)[n+]2[O-]` ?
> 100 µM (inactive)

====

# Tested on: MOLT-4
# method-notes: NCI tumour cell line growth inhibition, 48 h
Activity calls are given as the source filed them. No stated cut-off is given here; in the data, active = GI50 up to about 1.1 µM and inactive = higher.
readout-type: GI50

As a guide, the following entries are already answered.
compound: COc1ccc(/C=N/NS(=O)(=O)c2ccc(/C=C3\NC(=O)N(C)C3=O)cc2)cc1
readout-type: GI50
value: 63.5 µM (inactive)

compound: NC(=O)C12C3C4C1C1C2C3C41C(N)=O (centres undefined)
readout-type: GI50
value: > 100 µM (inactive)

Now consider a different compound.
Param item = `COC(=O)[C@@H](NC(=O)N(CCC#N)CCCN(C(=O)N[C@H](Cc1ccccc1)C(=O)OC)c1ccccc1)C(C)C` ; retrieve measured GI50.
23 µM (inactive)

====

# System: A549
# method-notes: NCI tumour cell line growth inhibition, 48 h
Active and inactive are the calls of the source. No stated cut-off is given here; in the data, active = GI50 up to about 1.1 µM and inactive = higher.
Your answer must be one of the following: label 1 = active, label 0 = inactive

molecule: CN(C)CC/[N+]([O-])=C(/c1ccccc1)C12CC3CC(CC(C3)C1)C2
tgt: A549
label-class: label 0
//
molecule: OCc1ccccc1O[C@H]1O[C@H](CO)[C@@H](O)[C@H](O)[C@H]1O
tgt: A549
label-class: label 0

Recorded test outcome, item NC(=O)C(NC=O)c1ccccc1 (configuration not stated)
label 0

Would you kindly repeat that for `CCN(CC)CCn1c2cc3c(cc2c(=O)c2cccnc21)OCO3` ?
label 0

====

# Test system: OVCAR-4
# method-notes: NCI tumour cell line growth inhibition, 48 h
Active and inactive are the calls of the source. Rule as the data show it: active = GI50 up to about 1.1 µM and inactive = higher.
Entries and their GI50 values follow.

As a guide, the following entries are already answered.
molecule: O=CNNC(=O)Nc1cccc2ccccc12
GI50: > 100 µM (inactive)

molecule: C[C@@H](NC1CCCC[C@H]1O)c1ccccc1 (stereo partly specified)
GI50: > 100 µM (inactive)

molecule: Nc1ncnc2ccc(Sc3ccc4ncnc(N)c4c3)cc12
GI50: > 100 µM (inactive)

molecule: O=C(NNC(=S)Nc1ccccc1)c1nsc2ccccc12
GI50: 96.8 µM (inactive)

molecule: CC(C)(C)OCC1NC(=O)[C@@H]2Cc3c([nH]c4ccccc34)C(C3CCCCC3)N2C1=O (stereo partly specified)
GI50: 23.9 µM (inactive)

Now consider a different molecule.
Param item = Cc1cc2c(cc1C)NC1=C(O)C(c3c[nH]c4ccc(COc5ccccc5)cc34)OC1=N2 (stereo unspecified) ; retrieve measured GI50.
> 100 µM (inactive)

====

# Tested on: NCI-H522
# method-notes: NCI tumour cell line growth inhibition, 48 h
Active and inactive are the calls of the source. Rule as the data show it: active = GI50 up to about 1.1 µM and inactive = higher.
readout-type: GI50

As a guide, the following entries are already answered.
molecule: COC(=O)CC1(O)C(C=C(C)C)C(C(=O)OC)C(=O)C(C(=O)OC)C1C(=O)OC (stereo unspecified)
GI50: > 100 µM (inactive)

molecule: CS(=O)(=O)c1ccc(C2=C(c3ccccc3)C(=O)OC2)cc1
GI50: > 100 µM (inactive)

molecule: COc1ccccc1NC(=O)CC(=O)NNCC(=O)Nc1nc(-c2ccccc2)cs1
GI50: > 100 µM (inactive)

Param item = CC(C)(C)OC(=O)NC(Cc1ccccc1)C(=O)OCN1C(=O)C2C3C=CC(C2C1=O)C1C2C(=O)N(COC(=O)C(Cc4ccccc4)NC(=O)OC(C)(C)C)C(=O)C2C31 (stereo unspecified) ; retrieve measured GI50.
23.7 µM (inactive)

Would you kindly repeat that for `CCOC(=O)c1cn2c([nH]c3ccccc32)c(C#N)c1=O` ?
> 100 µM (inactive)

====

# System: K562
# method-notes: NCI tumour cell line growth inhibition, 48 h
Active and inactive are the calls of the source. No stated cut-off is given here; in the data, active = GI50 up to about 1.1 µM and inactive = higher.
readout-type: GI50

As a guide, the following entries are already answered.
molecule: O=C1C2Nc3ccccc3SC2C(=O)N1c1cccc([N+](=O)[O-])c1 (centres undefined)
GI50: > 100 µM (inactive)

molecule: COc1ccc(/C=C2\CCC/C(=C\c3ccc(O)c(CN4CCCCC4)c3)C2=O)cc1
GI50: 3.96 µM (inactive)

molecule: C=C(C)CN(CC#N)CC(=C)C
GI50: > 100 µM (inactive)

molecule: COc1ccc(/N=C\c2ccc(N(CCC#N)S(=O)(=O)c3ccccc3)cc2C)cc1
GI50: 11.1 µM (inactive)

molecule: Fc1ccc2c(c1)SC1Oc3ccccc3-c3c1c-2nn3-c1ccccc1 (centres undefined)
GI50: > 100 µM (inactive)

molecule: CC1(C)C(=S)C(C)(C)C1=S
GI50: > 100 µM (inactive)

molecule: CCCCCC(C(O)C#N)C(O)(C(F)(F)F)C(F)(F)F (centres undefined)
GI50: > 10 µM (inactive)

molecule: CC(C)(CN1CCCCC1)C(=O)CC(SCCS(=O)(=O)O)c1ccc(Cl)c(Cl)c1 (centres undefined)
GI50: 2.42 µM (inactive)

Now consider a different molecule.
Param item = CSC12c3cc(C)n(-c4ccccc4)c3CC(C)(C)CN1C(=O)C2Oc1ccccc1 (centres undefined) ; retrieve measured GI50.
32.1 µM (inactive)

====

# Test system: DMS-114
# method-notes: NCI tumour cell line growth inhibition, 48 h
The source made the active and inactive calls. No stated cut-off is given here; in the data, active = GI50 up to about 1.1 µM and inactive = higher.
Your answer must be one of the following: Yes = active, No = inactive

The following compounds have reported results that may help.
compound: CN(C)CC[N+]1=Nc2cccc3cccc(c23)N1
label-class: No
--
compound: CCCC(=O)N[C@@H](Cc1cc(I)c(O)c(I)c1)C(=O)NCCCNCCCCNCCCNC(=O)[C@@H](N)CCCN=C(N)N
label-class: No
--
compound: [N-]=[N+]=NCC(O)Cn1cnc2c(NC(=O)c3ccccc3)ncnc21 (stereo not given)
label-class: No
--
compound: CCNC(=S)NNC(=O)c1nsc2ccccc12
label-class: No

Recorded test outcome, item `COc1cc([C@@H]2c3cc4c(cc3[C@H](O)[C@H]3COC(=O)[C@H]23)OCO4)cc(OC)c1OC`
Yes

====

# Test system: MDA-MB-435
# method-notes: NCI tumour cell line growth inhibition, 48 h
Activity calls are given as the source filed them. Cut-off read from the data, not from the text of the source: active = GI50 up to about 1.1 µM and inactive = higher.
readout-type: GI50

As a guide, the following entries are already answered.
compound: CC(C)(CN1CCCCC1)C(=O)CC(SCCS(=O)(=O)O)c1ccc(Cl)c(Cl)c1 (stereo unspecified)
value: 2.21 µM (inactive)
--
compound: O=C(CSC1=NC(=O)C2(NN1)c1ccccc1-c1ccccc12)NC(=S)Nc1ccccc1
value: > 10 µM (inactive)

Now consider a different compound.
Param item = `O=CNNC(=O)Nc1cccc2ccccc12` ; retrieve measured GI50.
> 100 µM (inactive)
